Test: photoluminescence quantum yield (fraction); solvent given as SMILES
Conditions: in CO
reported_property: photoluminescence quantum yield
Reply briefly: the number, and no unit.

What does the data say about its photoluminescence quantum yield? Entry: `COc1cc(N(c2ccc(C=C(C#N)C#N)c(OC)c2)c2ccc(C=C(C#N)C#N)c(OC)c2)ccc1C=C(C#N)C#N`
0.043

What does the data say about its photoluminescence quantum yield? Entry: `CN(C)/C=N\c1ccc2c3c(cccc13)C(=O)c1ccccc1-2`
0.27

What does the data say about its photoluminescence quantum yield? Entry: `O=C1c2ccccc2-c2ccc(N3CCN(c4ccccc4)CC3)c3cccc1c23`
0.004

What does the data say about its photoluminescence quantum yield? Entry: `C/C(=C\c1ccc(C)cc1)c1nc2ccccc2s1`
0.001

What does the data say about its photoluminescence quantum yield? Entry: `CSc1sc(C(=O)c2ccccc2)c2nn[nH]c(=O)c12`
0.0069

What does the data say about its photoluminescence quantum yield? Entry: `COc1cc(C=O)cc(-c2[nH]c(=O)n3c2-c2ccccc2C3=O)c1O`
0.04

What does the data say about its photoluminescence quantum yield? Entry: `CCCCNC(=O)c1nc2c(N(C)C)nc(N(C)C)nc2n1Cc1ccccc1`
0.89

What does the data say about its photoluminescence quantum yield? Entry: `N#Cc1ccc(-c2nc(-c3ccccc3)c(-c3ccccc3)[nH]2)cc1`
0.52

What does the data say about its photoluminescence quantum yield? Entry: `CCCCCCCCN1c2ccc(C#Cc3ccc(F)cc3)cc2Sc2cc(C=O)ccc21`
0.07

What does the data say about its photoluminescence quantum yield? Entry: CCCCC1=Cc2c3ccc4cccc5ccc(c6cc(-c7ccccc7)n(c26)P1(=O)c1ccccc1)c3c45 (stereo not given)
0.51

What does the data say about its photoluminescence quantum yield? Entry: ClC(Cl)=C1c2ccccc2C(C2(Cl)c3ccccc3C(=C(Cl)Cl)c3ccccc32)c2ccccc21 (stereo not given)
0.15

What does the data say about its photoluminescence quantum yield? Entry: `CN(C)c1ccc(C#Cc2ccc(-c3nc(C#N)c(C#N)n3C)cc2)cc1`
0.003

What does the data say about its photoluminescence quantum yield? Entry: `Nc1cccc2cn[nH]c12`
0.11

What does the data say about its photoluminescence quantum yield? Entry: `c1ccc2c(-n3c4ccccc4c4ccccc43)cccc2c1`
0.36

What does the data say about its photoluminescence quantum yield? Entry: `CCN(CC)c1ccc2c(c1)oc(=O)c1c(C)nc3c(cnn3-c3ccccc3)c12`
0.294

What does the data say about its photoluminescence quantum yield? Entry: `Cc1cc(C)c(B(c2cc(-c3ccc(N(C)C)cc3)sc2-c2sc(-c3ccc(N(C)C)cc3)cc2P(=O)(c2ccccc2)c2ccccc2)c2c(C)cc(C)cc2C)c(C)c1`
0.18

What does the data say about its photoluminescence quantum yield? Entry: `Clc1ccc(/C=C(\c2ccccc2)c2nc3ccccc3o2)cc1`
0.002

What does the data say about its photoluminescence quantum yield? Entry: NS(=O)(=O)c1ccc(N2N=C(c3ccc(O)cc3)CC2c2ccc(Cl)cc2)cc1 (stereo not given)
0.36

What does the data say about its photoluminescence quantum yield? Entry: `N#Cc1ccc(/C=C/c2c3ccccc3cc3ccccc23)cc1`
0.029

What does the data say about its photoluminescence quantum yield? Entry: `COc1ccc2n1[B-](F)(F)[N+]1=C(c3ccccc3)C=CC1=C2c1ccc(C)cc1`
0.23
